# testedOn: CCR4 (Homo sapiens)
# Construct: expressed in transfected cells; cell membrane extract
# Sequence (P51679 1-360): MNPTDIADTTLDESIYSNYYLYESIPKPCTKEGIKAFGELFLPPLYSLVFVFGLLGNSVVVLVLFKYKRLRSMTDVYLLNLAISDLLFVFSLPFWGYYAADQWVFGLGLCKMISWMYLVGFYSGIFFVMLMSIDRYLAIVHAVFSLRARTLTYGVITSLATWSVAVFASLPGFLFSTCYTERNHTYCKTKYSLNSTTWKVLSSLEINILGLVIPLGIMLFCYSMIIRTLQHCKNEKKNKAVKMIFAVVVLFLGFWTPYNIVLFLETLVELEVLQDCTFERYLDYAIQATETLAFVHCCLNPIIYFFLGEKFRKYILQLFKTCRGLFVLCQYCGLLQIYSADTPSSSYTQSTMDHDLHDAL
# assay: Radio ligand competition binding assay on CCR4 cell membrane extract
# conditions: [125I]-CCL17; HEK293 CCR4 cell membrane extract; 4 °C, 24 h; read-out: IC50, competitive binding with CCL17 to CCR4
pIC50: −log10 of the molar value.
readoutLabel: pIC50

response.value for O=C(C1CCCCN1)N1CCN(c2nc(Cl)cc(NCc3ccc(Cl)cc3Cl)n2)CC1 (centres unmarked) (field: pIC50) = 6.82

response.value for O=C([C@@H]1CSCCN1)N1CCN(c2nc(NCc3ccc(Cl)cc3Cl)c3cccnc3n2)CC1 [compound 6b, reference compound] (field: pIC50) = 6.98
